ASSAY_COMMENT: Plasma pharmacokinetics of emodepside, single ascending dose (SAD) and food effect study
Format: in vivo, human
EXPERIMENTAL_SETUP: human, in vivo, po, 2.5 mg, SAD, single oral 2.5 mg LSF fasting; plasma; median (range)
MEASURE: Tmax
Form field: result (number plus unit)

Problem: Supply recorded Tmax for CC(C)C[C@H]1C(=O)O[C@H](Cc2ccc(N3CCOCC3)cc2)C(=O)N(C)[C@@H](CC(C)C)C(=O)O[C@H](C)C(=O)N(C)[C@@H](CC(C)C)C(=O)O[C@H](Cc2ccc(N3CCOCC3)cc2)C(=O)N(C)[C@@H](CC(C)C)C(=O)O[C@H](C)C(=O)N1C [emodepside] here.
Result: 1 h

---

ASSAY_COMMENT: Plasma pharmacokinetics of emodepside, multiple ascending dose (MAD) study
Format: in vivo, human
EXPERIMENTAL_SETUP: human, plasma, po, 10 mg, 10 mg OD LSF fasting, Day 1, mean (CV%)
MEASURE: MRT (h)
Use h as the unit, but write only the number.

Problem: Supply recorded MRT for CC(C)C[C@H]1C(=O)O[C@H](Cc2ccc(N3CCOCC3)cc2)C(=O)N(C)[C@@H](CC(C)C)C(=O)O[C@H](C)C(=O)N(C)[C@@H](CC(C)C)C(=O)O[C@H](Cc2ccc(N3CCOCC3)cc2)C(=O)N(C)[C@@H](CC(C)C)C(=O)O[C@H](C)C(=O)N1C [emodepside] here.
Result: 7

---

ASSAY_COMMENT: Plasma pharmacokinetics of emodepside, multiple ascending dose (MAD) study
Assay type: in vivo, human
EXPERIMENTAL_SETUP: human, plasma, po, 10 mg, 10 mg OD LSF fasting, Day 10, mean (CV%), geometric mean, read-out: Terminal t ½ (converted)
MEASURE: half-life (days)
Use days as the unit, but write only the number.

Problem: Supply recorded half-life for CC(C)C[C@H]1C(=O)O[C@H](Cc2ccc(N3CCOCC3)cc2)C(=O)N(C)[C@@H](CC(C)C)C(=O)O[C@H](C)C(=O)N(C)[C@@H](CC(C)C)C(=O)O[C@H](Cc2ccc(N3CCOCC3)cc2)C(=O)N(C)[C@@H](CC(C)C)C(=O)O[C@H](C)C(=O)N1C [emodepside] here.
Result: 18.8

---

ASSAY_COMMENT: Plasma pharmacokinetics of emodepside, single ascending dose (SAD) and food effect study
Type: in vivo, human
EXPERIMENTAL_SETUP: human, in vivo, po, 40 mg, SAD, single oral 40 mg LSF fasting; plasma; median (range)
MEASURE: Tmax
Form field: result (number plus unit)

Problem: Supply recorded Tmax for CC(C)C[C@H]1C(=O)O[C@H](Cc2ccc(N3CCOCC3)cc2)C(=O)N(C)[C@@H](CC(C)C)C(=O)O[C@H](C)C(=O)N(C)[C@@H](CC(C)C)C(=O)O[C@H](Cc2ccc(N3CCOCC3)cc2)C(=O)N(C)[C@@H](CC(C)C)C(=O)O[C@H](C)C(=O)N1C [emodepside] here.
Result: 1.05 h

---

ASSAY_COMMENT: Plasma pharmacokinetics of emodepside, single ascending dose (SAD) and food effect study
Type: in vivo, human
EXPERIMENTAL_SETUP: human, in vivo, po, 1 mg, SAD, single oral 1 mg LSF fasting; plasma, HPLC-MS/MS; mean
MEASURE: AUC(0-t) (ng·h/mL)
Use ng·h/mL as the unit, but write only the number.

Problem: Supply recorded AUC(0-t) for CC(C)C[C@H]1C(=O)O[C@H](Cc2ccc(N3CCOCC3)cc2)C(=O)N(C)[C@@H](CC(C)C)C(=O)O[C@H](C)C(=O)N(C)[C@@H](CC(C)C)C(=O)O[C@H](Cc2ccc(N3CCOCC3)cc2)C(=O)N(C)[C@@H](CC(C)C)C(=O)O[C@H](C)C(=O)N1C [emodepside] here.
Result: 182

---

ASSAY_COMMENT: Plasma pharmacokinetics of emodepside, single ascending dose (SAD) and food effect study
Format: in vivo, human
EXPERIMENTAL_SETUP: human, in vivo, po, 40 mg, SAD, single oral 40 mg LSF fasting; plasma; ln2/λz; mean; read-out: Terminal t ½ (converted)
MEASURE: half-life (days)
Use days as the unit, but write only the number.

Problem: Supply recorded half-life for CC(C)C[C@H]1C(=O)O[C@H](Cc2ccc(N3CCOCC3)cc2)C(=O)N(C)[C@@H](CC(C)C)C(=O)O[C@H](C)C(=O)N(C)[C@@H](CC(C)C)C(=O)O[C@H](Cc2ccc(N3CCOCC3)cc2)C(=O)N(C)[C@@H](CC(C)C)C(=O)O[C@H](C)C(=O)N1C [emodepside] here.
Result: 16.3

---

ASSAY_COMMENT: Plasma pharmacokinetics of emodepside, single ascending dose (SAD) and food effect study
Format: in vivo, human
EXPERIMENTAL_SETUP: human, in vivo, po, 40 mg, SAD, single oral 40 mg LSF fasting; plasma, HPLC-MS/MS; mean
MEASURE: Cmax (ng/mL)
Use ng/mL as the unit, but write only the number.

Problem: Supply recorded Cmax for CC(C)C[C@H]1C(=O)O[C@H](Cc2ccc(N3CCOCC3)cc2)C(=O)N(C)[C@@H](CC(C)C)C(=O)O[C@H](C)C(=O)N(C)[C@@H](CC(C)C)C(=O)O[C@H](Cc2ccc(N3CCOCC3)cc2)C(=O)N(C)[C@@H](CC(C)C)C(=O)O[C@H](C)C(=O)N1C [emodepside] here.
Result: 595

---

ASSAY_COMMENT: Plasma pharmacokinetics of emodepside, single ascending dose (SAD) and food effect study
Format: in vivo, human
EXPERIMENTAL_SETUP: human, in vivo, po, 5 mg, SAD, single oral 5 mg LSF fasting; plasma, HPLC-MS/MS; mean
MEASURE: AUC(0-t) (ng·h/mL)
Use ng·h/mL as the unit, but write only the number.

Problem: Supply recorded AUC(0-t) for CC(C)C[C@H]1C(=O)O[C@H](Cc2ccc(N3CCOCC3)cc2)C(=O)N(C)[C@@H](CC(C)C)C(=O)O[C@H](C)C(=O)N(C)[C@@H](CC(C)C)C(=O)O[C@H](Cc2ccc(N3CCOCC3)cc2)C(=O)N(C)[C@@H](CC(C)C)C(=O)O[C@H](C)C(=O)N1C [emodepside] here.
Result: 1700

---

ASSAY_COMMENT: Plasma pharmacokinetics of emodepside, single ascending dose (SAD) and food effect study
Assay type: in vivo, human
EXPERIMENTAL_SETUP: human, in vivo, po, 10 mg, SAD, single oral 10 mg LSF fasting; plasma, HPLC-MS/MS; mean
MEASURE: Cmax (ng/mL)
Use ng/mL as the unit, but write only the number.

Problem: Supply recorded Cmax for CC(C)C[C@H]1C(=O)O[C@H](Cc2ccc(N3CCOCC3)cc2)C(=O)N(C)[C@@H](CC(C)C)C(=O)O[C@H](C)C(=O)N(C)[C@@H](CC(C)C)C(=O)O[C@H](Cc2ccc(N3CCOCC3)cc2)C(=O)N(C)[C@@H](CC(C)C)C(=O)O[C@H](C)C(=O)N1C [emodepside] here.
Result: 172

---

ASSAY_COMMENT: Plasma pharmacokinetics of emodepside, single ascending dose (SAD) and food effect study
Type: in vivo, human
EXPERIMENTAL_SETUP: human, in vivo, po, 5 mg, SAD, single oral 5 mg IRT fasting; plasma; ln2/λz; mean; read-out: Terminal t ½ (converted)
MEASURE: half-life (days)
Use days as the unit, but write only the number.

Problem: Supply recorded half-life for CC(C)C[C@H]1C(=O)O[C@H](Cc2ccc(N3CCOCC3)cc2)C(=O)N(C)[C@@H](CC(C)C)C(=O)O[C@H](C)C(=O)N(C)[C@@H](CC(C)C)C(=O)O[C@H](Cc2ccc(N3CCOCC3)cc2)C(=O)N(C)[C@@H](CC(C)C)C(=O)O[C@H](C)C(=O)N1C [emodepside] here.
Result: 11.1

---

ASSAY_COMMENT: Plasma pharmacokinetics of emodepside, single ascending dose (SAD) and food effect study
Type: in vivo, human
EXPERIMENTAL_SETUP: human, in vivo, po, 5 mg, SAD, single oral 5 mg IRT fasting; plasma, HPLC-MS/MS; mean
MEASURE: Cmax (ng/mL)
Use ng/mL as the unit, but write only the number.

Problem: Supply recorded Cmax for CC(C)C[C@H]1C(=O)O[C@H](Cc2ccc(N3CCOCC3)cc2)C(=O)N(C)[C@@H](CC(C)C)C(=O)O[C@H](C)C(=O)N(C)[C@@H](CC(C)C)C(=O)O[C@H](Cc2ccc(N3CCOCC3)cc2)C(=O)N(C)[C@@H](CC(C)C)C(=O)O[C@H](C)C(=O)N1C [emodepside] here.
Result: 25.7

---

ASSAY_COMMENT: Plasma pharmacokinetics of emodepside, multiple ascending dose (MAD) study
Assay type: in vivo, human
EXPERIMENTAL_SETUP: human, plasma, po, 5 mg, 5 mg OD LSF fasting, Day 1, plasma, HPLC-MS/MS, mean (CV%)
MEASURE: Cmax (ng/mL)
Use ng/mL as the unit, but write only the number.

Problem: Supply recorded Cmax for CC(C)C[C@H]1C(=O)O[C@H](Cc2ccc(N3CCOCC3)cc2)C(=O)N(C)[C@@H](CC(C)C)C(=O)O[C@H](C)C(=O)N(C)[C@@H](CC(C)C)C(=O)O[C@H](Cc2ccc(N3CCOCC3)cc2)C(=O)N(C)[C@@H](CC(C)C)C(=O)O[C@H](C)C(=O)N1C [emodepside] here.
Result: 93.8
